Biological target: FL huCD4 Q15A (Homo sapiens, UniProt P01730, Q15A)
Test: CADA down-modulation of cellular huCD4
Assay type: cell-based
Settings: read-out: Cellular huCD4 IC50 (μM) Mean, HEK293T, CADA 48h
property.name: IC50

molecule="C=C1CN(S(=O)(=O)c2ccc(C)cc2)CCCN(Cc2ccccc2)CCCN(S(=O)(=O)c2ccc(C)cc2)C1 [CADA, Cyclotriazadisulfonamide]" property_name=IC50 readout_value="> 50 µM"

----------
Molecular target: FL huCD4 WT (Homo sapiens, UniProt P01730)
Assay: CADA down-modulation of cellular huCD4
Type: cell-based
Details: read-out: Cellular huCD4 IC50 (μM) Mean, HEK293T, CADA 48h
property.name: IC50 (µM)

molecule="C=C1CN(S(=O)(=O)c2ccc(C)cc2)CCCN(Cc2ccccc2)CCCN(S(=O)(=O)c2ccc(C)cc2)C1 [CADA, Cyclotriazadisulfonamide]" property_name=IC50 uom=µM readout_value=0.54

----------
Biological target: huCD4_1–32-YFP R3A (Homo sapiens, UniProt P01730, R3A)
Assay: CADA inhibition of huCD4_1–32-YFP secretion
Format: cell-based
Conditions: read-out: Secreted YFP IC50 (μM) Mean, HEK293T, CADA 48h
property.name: IC50 (µM)

compound="C=C1CN(S(=O)(=O)c2ccc(C)cc2)CCCN(Cc2ccccc2)CCCN(S(=O)(=O)c2ccc(C)cc2)C1 [CADA, Cyclotriazadisulfonamide]" uom=µM readout_value=1.99

----------
Biological target: huCD4_1–32-YFP V28A (Homo sapiens, UniProt P01730, V28A)
Assay: CADA inhibition of huCD4_1–32-YFP secretion
Assay type: cell-based
Conditions: read-out: Secreted YFP IC50 (μM) Mean, HEK293T, CADA 48h
property.name: IC50 (µM)

compound="C=C1CN(S(=O)(=O)c2ccc(C)cc2)CCCN(Cc2ccccc2)CCCN(S(=O)(=O)c2ccc(C)cc2)C1 [CADA, Cyclotriazadisulfonamide]" readout_value=0.72

----------
Molecular target: FL huCD4 L18A (Homo sapiens, UniProt P01730, L18A)
Assay: CADA down-modulation of cellular huCD4
Assay type: cell-based
Conditions: read-out: Cellular huCD4 IC50 (μM) Mean, HEK293T, CADA 48h
property.name: IC50 (µM)

compound="C=C1CN(S(=O)(=O)c2ccc(C)cc2)CCCN(Cc2ccccc2)CCCN(S(=O)(=O)c2ccc(C)cc2)C1 [CADA, Cyclotriazadisulfonamide]" readout_value=0.1

----------
Target: FL huCD4 R3A (Homo sapiens, UniProt P01730, R3A)
Assay: CADA down-modulation of cellular huCD4
Type: cell-based
Details: read-out: Cellular huCD4 IC50 (μM) Mean, HEK293T, CADA 48h
property.name: IC50 (µM)

molecule="C=C1CN(S(=O)(=O)c2ccc(C)cc2)CCCN(Cc2ccccc2)CCCN(S(=O)(=O)c2ccc(C)cc2)C1 [CADA, Cyclotriazadisulfonamide]" readout_value=0.47

----------
Biological target: huCD4_1–32-YFP G4A (Homo sapiens, UniProt P01730, G4A)
Assay: CADA inhibition of huCD4_1–32-YFP secretion
Assay type: cell-based
Conditions: read-out: Secreted YFP IC50 (μM) Mean, HEK293T, CADA 48h
property.name: IC50 (µM)

molecule="C=C1CN(S(=O)(=O)c2ccc(C)cc2)CCCN(Cc2ccccc2)CCCN(S(=O)(=O)c2ccc(C)cc2)C1 [CADA, Cyclotriazadisulfonamide]" property_name=IC50 readout_value=0.91
